meta.source: patent US12281122B1

Reported IC50 values for the following molecules.
Tested on: SKBR3 (PI3Kα-Wild Type) cell line
measurement protocol: HTRF phospho-AKT(S473) cell assay in SKBR3 cells
Type: cell-based, human
test settings: Homo sapiens, SK-BR-3; SKBR3 (PI3Kα-Wild Type) cell line, phospho-AKT(S473) HTRF, 2 hours compound incubation, PDGF-BB stimulated

[[record]]
smiles_input = "Cc1cc([C@@H](C)Nc2ccc(Cl)nc2C(=O)NS(C)(=O)=O)c2nc(-c3cnc(N(C)C)nc3)n(C)c(=O)c2c1"
assay_readout = "IC50"
recorded_value = "≥ 5 µM"

[[record]]
smiles_input = "Cc1cc([C@@H](C)Nc2ccc(Cl)nc2C(=O)NS(C)(=O)=O)c2nc(-c3ccc4nn(C)cc4c3)n(C3CC3)c(=O)c2c1"
assay_readout = "IC50"
recorded_value = "1 to 5 µM"

[[record]]
smiles_input = "Cc1cc([C@@H](C)Nc2ccc(Cl)nc2C(=O)NS(C)(=O)=O)c2nc(-c3ccc(-c4cnc(C)nc4)nc3)n(C)c(=O)c2c1"
assay_readout = "IC50"
recorded_value = "1 to 5 µM"


Input: Give IC50 for the following molecule: Cc1cc([C@@H](C)Nc2ccc(Cl)nc2C(=O)NS(C)(=O)=O)c2nc(C#Cc3cnn(C)c3)n(C)c(=O)c2c1
Output: ≥ 5 µM

Input: Respond only with IC50 recorded for Cc1cc([C@@H](C)Nc2ccc(Cl)nc2C(=O)NS(C)(=O)=O)c2nc(-c3ccc(OC4CCN(CC(F)(F)F)CC4)nc3)n(C)c(=O)c2c1
Output: ≥ 5 µM
